- Test system: CSNK2A2
- Protocol conditions: concentration: 1 μM, replicates: in singlicate; n = 1;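 note: KINOMEscan kinase panel screen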
molecules and their reported %Inh
Test readout: %Inh (%)

>  <Chemical string>
CSc1ccc(NC2=C(c3ccc(Cl)cc3)C(=O)NC2=O)cc1

>  <System tested>
CSNK2A2

>  <Unit text>
%

>  <Measured value>
25

$$$$
>  <Chemical string>
CCn1c(-c2nonc2N)nc2c(-c3ccccc3)ncc(OCCCN)c21.O=C(O)C(F)(F)F.O=C(O)C(F)(F)F

>  <System tested>
CSNK2A2

>  <Unit text>
%

>  <Measured value>
31

$$$$
>  <Chemical string>
COc1cccc(C2=C(Nc3cccc(O)c3)C(=O)NC2=O)c1

>  <System tested>
CSNK2A2

>  <Unit text>
%

>  <Measured value>
8

$$$$
>  <Chemical string>
Fc1cc(Cl)ccc1Nc1ccnc2cc(-c3ccc(CN4CCOCC4)o3)ccc12

>  <System tested>
CSNK2A2

>  <Unit text>
%

>  <Measured value>
86

$$$$
>  <Chemical string>
CC(=O)Nc1cn2nc(Oc3cccc(NC(=O)c4cccc(C(F)(F)F)c4)c3)ccc2n1

>  <System tested>
CSNK2A2

>  <Unit text>
%

>  <Measured value>
0

$$$$
>  <Chemical string>
Fc1cc(Cl)ccc1Nc1ccnc2cc(-c3ccc(CN4CCSCC4)o3)ccc12

>  <System tested>
CSNK2A2

>  <Unit text>
%

>  <Measured value>
100

$$$$
>  <Chemical string>
Cc1ccc(Nc2ccnc(Nc3ccc(C)c(F)c3)n2)cc1O.Cl

>  <System tested>
CSNK2A2

>  <Unit text>
%

>  <Measured value>
9

$$$$
>  <Chemical string>
COc1cccc(-c2nc(-c3ccccc3)[nH]c2-c2ccncc2)c1

>  <System tested>
CSNK2A2

>  <Unit text>
%

>  <Measured value>
0

$$$$
>  <Chemical string>
Cc1cccc(Nc2nc(N[C@H]3CCCC[C@H]3N)ncc2C(N)=O)c1.Cl

>  <System tested>
CSNK2A2

>  <Unit text>
%

>  <Measured value>
25

$$$$

* * *

The following molecules are listed with their measured %Inh values.
- Test system: MAP3K2
- Protocol conditions: concentration: 1 μM, replicates: in singlicate; n = 1

>  <Molecule>
Cc1ccc(C)c(NC(=O)Nc2ccc(C)c(-c3ccc(C(=O)Nc4ccncc4)cc3)c2)c1

>  <%Inh (%)>
30

$$$$
>  <Molecule>
CN(C)CCNS(=O)(=O)c1ccc(-c2ccnc3[nH]ccc23)cc1

>  <%Inh (%)>
49

$$$$
>  <Molecule>
Cl.Cl.NC(CNC(=O)c1cc(Br)c(-c2ccnc3[nH]ccc23)s1)c1ccccc1 (stereo not drawn)

>  <%Inh (%)>
27

$$$$
>  <Molecule>
COC(=O)Nc1nc2ccc(Oc3ccc(CC(=O)Nc4cc(C(F)(F)F)ccc4F)cc3)cc2[nH]1

>  <%Inh (%)>
0

$$$$
>  <Molecule>
CCOc1nccc(-c2c(-c3ccc(F)cc3)ncn2C2CCNCC2)n1

>  <%Inh (%)>
10

$$$$
>  <Molecule>
Cc1nn2c(=O)cc(N3CCO[C@H](C)C3)nc2n1Cc1cccc(Cl)c1Cl

>  <%Inh (%)>
7

$$$$
>  <Molecule>
Cc1cc(-c2ccnc(Nc3cccc(C#N)c3)n2)cc(C)c1O

>  <%Inh (%)>
2

$$$$
>  <Molecule>
CCNc1nccc(-c2c(-c3ccc(F)cc3)ncn2C2CCN(C)CC2)n1

>  <%Inh (%)>
0

$$$$
>  <Molecule>
CNc1nccc(-c2ccc3c(N)n[nH]c3c2)n1

>  <%Inh (%)>
0

$$$$
